# system: 5-hydroxytryptamine receptor 7 (Homo sapiens, UniProt P34969)
# Sequence (P34969 whole entry): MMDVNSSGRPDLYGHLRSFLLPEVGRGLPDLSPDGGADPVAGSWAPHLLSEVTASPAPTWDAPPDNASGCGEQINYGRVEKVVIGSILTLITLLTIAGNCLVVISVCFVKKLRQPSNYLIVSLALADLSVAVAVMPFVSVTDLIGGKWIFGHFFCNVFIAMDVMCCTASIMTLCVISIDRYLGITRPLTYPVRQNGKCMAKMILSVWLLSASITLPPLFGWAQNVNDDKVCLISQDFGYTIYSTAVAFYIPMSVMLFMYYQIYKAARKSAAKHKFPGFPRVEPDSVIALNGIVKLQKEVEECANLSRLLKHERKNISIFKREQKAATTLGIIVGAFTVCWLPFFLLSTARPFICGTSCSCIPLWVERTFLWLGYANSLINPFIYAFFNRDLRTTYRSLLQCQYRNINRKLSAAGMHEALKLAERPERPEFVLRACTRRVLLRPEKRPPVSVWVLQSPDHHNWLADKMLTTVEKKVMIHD
# assay.protocol: Displacement of [3H] D-lysergic acid diethylamide from 5-HT7R (unknown origin) transfected in HEK293 cells incubated for 1.5 hrs by microbeta scintillation counter analysis
# Format: cell-based
# run.conditions: read-out: Ki
Mark each entry y if its Ki sits below 9 nM, and n for all others.

[[record]]
molecule_smiles = "CNCCc1ccc(Cl)c(-c2ccccc2OC)c1"
system = "5-hydroxytryptamine receptor 7 (Homo sapiens, UniProt P34969)"
group_label = "y"

[[record]]
molecule_smiles = "CCCNCCc1ccc(Cl)c(-c2ccccc2OC)c1.Cl"
system = "5-hydroxytryptamine receptor 7 (Homo sapiens, UniProt P34969)"
group_label = "y"

[[record]]
molecule_smiles = "CCCN(CCC)Cc1ccc(Cl)c(-c2ccccc2OC)c1"
system = "5-hydroxytryptamine receptor 7 (Homo sapiens, UniProt P34969)"
group_label = "n"

[[record]]
molecule_smiles = "CCCN(CCC)CCc1ccc(Cl)c(-c2ccccc2OC)c1"
system = "5-hydroxytryptamine receptor 7 (Homo sapiens, UniProt P34969)"
group_label = "n"

[[record]]
molecule_smiles = "CCN(CC)CCc1ccc(Cl)c(-c2ccccc2OC)c1"
system = "5-hydroxytryptamine receptor 7 (Homo sapiens, UniProt P34969)"
group_label = "n"

[[record]]
molecule_smiles = "CCN(CC)Cc1ccc(Cl)c(-c2ccccc2OC)c1"
system = "5-hydroxytryptamine receptor 7 (Homo sapiens, UniProt P34969)"
group_label = "n"

[[record]]
molecule_smiles = "COc1ccccc1-c1cc(CCN(C)C)ccc1Cl"
system = "5-hydroxytryptamine receptor 7 (Homo sapiens, UniProt P34969)"
group_label = "y"

